System: M. marinum CAMP 5644 (MM)
Assay: in vitro antimycobacterial MIC, broth dilution micromethod in Middlebrook 7H9
Type: cell-based, Mycobacterium marinum
Conditions: Mycobacterium marinum, 504 h, read-out: MIC MM 21-d, 21-day cultivation, 28 °C
ENDPOINT LABEL: MIC (µM)
The answer is to be given in µM; state only the numeric part.

Consider the worked cases shown below.
1) CCCCCOc1cccc(NC(=O)OC(CN(CCC)CCC)CN2CCCCCC2)c1.Cl.Cl (centres unmarked) [1n] ... 15
2) CCCCOc1cccc(NC(=O)OC(CN(CCC)CCC)CN2CCCCCC2)c1 (centres unmarked) [1m] ... 15.4
3) CCCCCOc1ccccc1NC(=O)OC(CN(CCC)CCC)CN1CCCCCC1.O=C(O)C(=O)O (centres unmarked) [1j] ... 50

stdin: State the recorded MIC for this entry: CCCCCCCOc1ccccc1NC(=O)OC(CN(CCC)CCC)CN1CCCC1.Cl.Cl (centres unmarked) [1d]
stdout: 12.5

stdin: What would you report for CCCCCCCOc1cccc(NC(=O)OC(CN(CCC)CCC)CN2CCCCCC2)c1.Cl.Cl (centres unmarked) [1p] ?
stdout: 7.1

stdin: What would you report for CCCCCCOc1cccc(NC(=O)OC(CN(CCC)CCC)CN2CCCCCC2)c1.Cl.Cl (centres unmarked) [1o] ?
stdout: 7.3
